Biological target: PI3Kγ (Homo sapiens)
Sequence (P48736 whole entry): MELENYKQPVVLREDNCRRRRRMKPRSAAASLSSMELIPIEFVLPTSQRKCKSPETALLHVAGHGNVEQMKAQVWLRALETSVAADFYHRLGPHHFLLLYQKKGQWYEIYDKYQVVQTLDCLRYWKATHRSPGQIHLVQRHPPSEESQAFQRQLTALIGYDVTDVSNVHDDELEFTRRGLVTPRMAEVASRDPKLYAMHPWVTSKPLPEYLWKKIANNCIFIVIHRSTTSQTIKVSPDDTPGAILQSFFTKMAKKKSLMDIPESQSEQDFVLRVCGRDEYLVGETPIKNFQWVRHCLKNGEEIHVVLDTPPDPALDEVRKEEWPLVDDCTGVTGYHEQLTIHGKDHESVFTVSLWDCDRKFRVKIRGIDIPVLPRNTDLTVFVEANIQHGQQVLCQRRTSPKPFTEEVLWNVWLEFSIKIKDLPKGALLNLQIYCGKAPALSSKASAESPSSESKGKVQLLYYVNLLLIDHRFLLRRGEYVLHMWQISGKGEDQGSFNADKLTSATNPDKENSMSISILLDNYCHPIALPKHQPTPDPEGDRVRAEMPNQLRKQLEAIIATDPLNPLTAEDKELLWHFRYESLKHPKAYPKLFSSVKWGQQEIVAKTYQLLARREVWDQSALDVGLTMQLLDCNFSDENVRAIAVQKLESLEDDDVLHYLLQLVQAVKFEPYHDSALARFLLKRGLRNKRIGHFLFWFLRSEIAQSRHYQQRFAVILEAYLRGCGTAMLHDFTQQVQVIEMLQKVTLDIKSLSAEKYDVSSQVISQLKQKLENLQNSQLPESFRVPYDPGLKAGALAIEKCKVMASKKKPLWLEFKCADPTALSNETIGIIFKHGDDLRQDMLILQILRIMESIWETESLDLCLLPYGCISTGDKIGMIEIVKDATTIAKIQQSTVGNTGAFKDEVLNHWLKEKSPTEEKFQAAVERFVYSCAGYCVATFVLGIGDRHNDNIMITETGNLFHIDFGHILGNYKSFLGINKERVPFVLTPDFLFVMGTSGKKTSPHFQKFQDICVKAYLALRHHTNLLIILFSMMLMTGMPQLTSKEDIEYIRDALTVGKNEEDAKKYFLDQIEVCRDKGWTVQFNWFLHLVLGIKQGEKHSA
ATTRIBUTE MEASURED: pIC50
One number for each entry, as −log10 of the molar value.

Requested field: pIC50. Item: Cc1cc(C(C)Nc2ccccc2)c2nc(N3CCOCC3)cc(=O)n2c1 (stereo not shown)
5.78

---

Biological target: PI3Kδ (Homo sapiens, UniProt O00329)
Sequence (O00329 whole entry): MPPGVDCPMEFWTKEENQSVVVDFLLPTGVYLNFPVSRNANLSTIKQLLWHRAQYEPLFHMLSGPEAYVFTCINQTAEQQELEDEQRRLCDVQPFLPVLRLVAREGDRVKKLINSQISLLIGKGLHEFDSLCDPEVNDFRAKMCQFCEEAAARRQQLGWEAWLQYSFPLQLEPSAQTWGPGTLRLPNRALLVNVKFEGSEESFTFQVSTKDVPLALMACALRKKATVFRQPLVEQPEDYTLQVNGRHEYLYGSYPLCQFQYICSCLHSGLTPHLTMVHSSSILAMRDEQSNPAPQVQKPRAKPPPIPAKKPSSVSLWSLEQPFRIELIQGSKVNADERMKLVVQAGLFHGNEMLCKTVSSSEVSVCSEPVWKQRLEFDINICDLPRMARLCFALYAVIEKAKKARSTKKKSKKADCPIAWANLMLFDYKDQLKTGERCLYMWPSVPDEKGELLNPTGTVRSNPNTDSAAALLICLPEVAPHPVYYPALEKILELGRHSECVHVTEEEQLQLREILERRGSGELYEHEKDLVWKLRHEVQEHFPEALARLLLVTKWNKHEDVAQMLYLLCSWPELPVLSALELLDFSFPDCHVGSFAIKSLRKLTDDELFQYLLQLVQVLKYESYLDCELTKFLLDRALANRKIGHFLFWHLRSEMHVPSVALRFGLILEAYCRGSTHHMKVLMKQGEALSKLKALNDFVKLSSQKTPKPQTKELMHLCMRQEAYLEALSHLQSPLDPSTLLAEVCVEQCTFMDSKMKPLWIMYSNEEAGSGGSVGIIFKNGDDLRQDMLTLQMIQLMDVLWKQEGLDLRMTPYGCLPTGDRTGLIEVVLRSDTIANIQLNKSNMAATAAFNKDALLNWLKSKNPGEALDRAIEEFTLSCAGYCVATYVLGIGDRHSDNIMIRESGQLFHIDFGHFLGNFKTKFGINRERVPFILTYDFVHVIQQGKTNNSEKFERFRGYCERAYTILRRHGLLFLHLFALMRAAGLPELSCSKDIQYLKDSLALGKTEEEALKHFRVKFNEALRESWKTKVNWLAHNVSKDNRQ
Sequence (P27986 whole entry partner): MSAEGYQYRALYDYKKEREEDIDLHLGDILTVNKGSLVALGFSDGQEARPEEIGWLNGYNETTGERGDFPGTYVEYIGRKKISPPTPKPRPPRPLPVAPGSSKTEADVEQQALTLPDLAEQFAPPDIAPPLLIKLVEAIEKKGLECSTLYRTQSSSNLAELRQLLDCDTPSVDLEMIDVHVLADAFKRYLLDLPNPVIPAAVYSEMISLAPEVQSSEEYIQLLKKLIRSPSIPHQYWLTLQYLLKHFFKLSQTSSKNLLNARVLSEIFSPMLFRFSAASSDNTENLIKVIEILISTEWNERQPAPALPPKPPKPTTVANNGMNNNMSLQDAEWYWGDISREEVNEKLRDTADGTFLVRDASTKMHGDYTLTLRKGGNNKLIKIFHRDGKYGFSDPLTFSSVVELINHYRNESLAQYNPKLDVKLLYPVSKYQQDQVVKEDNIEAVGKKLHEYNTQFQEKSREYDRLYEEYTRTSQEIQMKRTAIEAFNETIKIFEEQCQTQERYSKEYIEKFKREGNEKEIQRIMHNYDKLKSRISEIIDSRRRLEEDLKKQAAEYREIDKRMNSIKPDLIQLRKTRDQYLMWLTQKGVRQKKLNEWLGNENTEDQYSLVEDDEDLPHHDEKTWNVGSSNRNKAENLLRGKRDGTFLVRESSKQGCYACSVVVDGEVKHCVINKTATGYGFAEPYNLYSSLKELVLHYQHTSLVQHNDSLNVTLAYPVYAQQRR
ATTRIBUTE MEASURED: IC50 (nM)
Numbers only, in nM.

// returns reported IC50 for input Cc1cc(C(C)Nc2ccccc2)c2nc(N3CCOCC3)cc(=O)n2c1 (stereo not shown) [TGX-221]
142

---

Target: mTOR/GbL/Raptor (mTORC1) (Homo sapiens)
Assay: mTOR/GbL/Raptor (mTORC1) ELISA assay
Format: biochemical
Details: 4EBP1 as substrate for mTOR/GbL/raptor kinase; read-out: biochemical IC50 mTOR
ATTRIBUTE MEASURED: IC50

Entry Cc1cc(C(C)Nc2ccccc2)c2nc(N3CCOCC3)cc(=O)n2c1 (stereo not shown) has what IC50?
10.9 µM

---

Target: PI3Kα (Homo sapiens, UniProt P42336)
Sequence (P42336 whole entry): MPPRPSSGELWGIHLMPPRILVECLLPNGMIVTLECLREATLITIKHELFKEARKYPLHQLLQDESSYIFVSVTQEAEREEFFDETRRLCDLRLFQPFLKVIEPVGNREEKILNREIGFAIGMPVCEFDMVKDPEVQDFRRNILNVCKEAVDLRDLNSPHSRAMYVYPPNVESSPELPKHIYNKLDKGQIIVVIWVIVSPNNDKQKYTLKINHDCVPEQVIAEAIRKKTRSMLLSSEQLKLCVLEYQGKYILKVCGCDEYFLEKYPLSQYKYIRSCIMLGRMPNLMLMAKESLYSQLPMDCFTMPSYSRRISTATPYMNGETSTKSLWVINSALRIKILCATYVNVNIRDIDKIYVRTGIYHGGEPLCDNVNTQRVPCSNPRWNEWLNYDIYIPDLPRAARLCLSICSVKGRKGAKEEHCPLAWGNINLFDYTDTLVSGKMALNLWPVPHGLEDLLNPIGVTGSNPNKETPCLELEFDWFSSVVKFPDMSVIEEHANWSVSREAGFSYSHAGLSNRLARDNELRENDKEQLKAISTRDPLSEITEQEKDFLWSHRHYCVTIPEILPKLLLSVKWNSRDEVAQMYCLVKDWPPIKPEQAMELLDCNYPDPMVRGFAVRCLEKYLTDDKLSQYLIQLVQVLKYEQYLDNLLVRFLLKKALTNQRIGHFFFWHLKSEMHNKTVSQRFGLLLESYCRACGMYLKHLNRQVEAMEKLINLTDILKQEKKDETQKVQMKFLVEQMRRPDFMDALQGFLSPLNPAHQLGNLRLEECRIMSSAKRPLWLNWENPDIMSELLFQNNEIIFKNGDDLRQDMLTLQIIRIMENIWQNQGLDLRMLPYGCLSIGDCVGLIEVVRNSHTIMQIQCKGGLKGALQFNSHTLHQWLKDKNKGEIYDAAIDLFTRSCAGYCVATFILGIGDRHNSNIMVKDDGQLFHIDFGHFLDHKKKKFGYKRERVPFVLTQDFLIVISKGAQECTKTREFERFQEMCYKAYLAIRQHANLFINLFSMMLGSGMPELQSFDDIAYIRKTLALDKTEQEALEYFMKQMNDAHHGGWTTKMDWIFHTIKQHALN
Sequence (P27986 whole entry partner): as the sequence (P27986 whole entry partner) above
Assay: PI3K biochemical assay (ATP consumption, luciferase-luciferin)
Details: Table 5; read-out: Biochemical IC50 PI3Kα
ATTRIBUTE MEASURED: IC50 (nM)
Give bare numbers, in nM.

Any idea what its IC50 is? The molecule is Cc1cc(C(C)Nc2ccccc2)c2nc(N3CCOCC3)cc(=O)n2c1 (stereo not shown)
1780

---

Test system: PC3 (PTEN null) cellular model
Assay: pAKT (T308) ELISA assay, PC3
Type: cell-based
Conditions: Homo sapiens; IGF1 stimulation
ATTRIBUTE MEASURED: IC50 (µM)
Give bare numbers, in µM.

Fill in the blank: the reported IC50 of Cc1cc(C(C)Nc2ccccc2)c2nc(N3CCOCC3)cc(=O)n2c1 (stereo not shown) [TGX-221] is ____.
11.2
